Molecular target: T1, ECF14_3200
T1 chain: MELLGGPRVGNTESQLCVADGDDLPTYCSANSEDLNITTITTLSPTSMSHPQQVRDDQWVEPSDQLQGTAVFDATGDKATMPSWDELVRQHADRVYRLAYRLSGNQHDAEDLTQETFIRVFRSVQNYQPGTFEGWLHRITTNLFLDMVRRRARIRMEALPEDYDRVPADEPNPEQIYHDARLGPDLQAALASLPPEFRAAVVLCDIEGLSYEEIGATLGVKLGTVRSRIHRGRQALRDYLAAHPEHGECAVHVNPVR
observation.type: fold repression

{"columns": ["binder", "result.value"],
 "data": [
  ["AS22_1147 (protein) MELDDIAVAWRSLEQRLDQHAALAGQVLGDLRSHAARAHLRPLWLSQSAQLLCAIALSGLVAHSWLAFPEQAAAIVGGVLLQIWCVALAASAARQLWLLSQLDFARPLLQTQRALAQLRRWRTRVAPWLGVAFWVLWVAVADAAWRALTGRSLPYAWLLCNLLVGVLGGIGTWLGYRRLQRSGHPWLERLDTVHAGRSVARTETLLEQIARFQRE", 5.04]
]}

Ref: paper PMC3817407
